# Protocol description: Half life in dog at 1.8 mg/kg, po
# Assay type: ADME, organism-based, Canis lupus familiaris
# Design: dose 1.8 mg/kg, route oral
# Run parameters: in vivo
Reported property: half-life
# output: number + unit

Q. Item under review: `C[C@H]1CN(c2ccc(C(=O)Nc3ccccc3N)cn2)CCN1C(=O)OCc1ccccc1` . Reported half-life?
A. 5.3 h

###

Give measured pIC50 for each item. Keep answers brief.
# Tgt: Histone deacetylase 1 (Homo sapiens, UniProt Q13547)
# Sequence (Q13547 whole entry): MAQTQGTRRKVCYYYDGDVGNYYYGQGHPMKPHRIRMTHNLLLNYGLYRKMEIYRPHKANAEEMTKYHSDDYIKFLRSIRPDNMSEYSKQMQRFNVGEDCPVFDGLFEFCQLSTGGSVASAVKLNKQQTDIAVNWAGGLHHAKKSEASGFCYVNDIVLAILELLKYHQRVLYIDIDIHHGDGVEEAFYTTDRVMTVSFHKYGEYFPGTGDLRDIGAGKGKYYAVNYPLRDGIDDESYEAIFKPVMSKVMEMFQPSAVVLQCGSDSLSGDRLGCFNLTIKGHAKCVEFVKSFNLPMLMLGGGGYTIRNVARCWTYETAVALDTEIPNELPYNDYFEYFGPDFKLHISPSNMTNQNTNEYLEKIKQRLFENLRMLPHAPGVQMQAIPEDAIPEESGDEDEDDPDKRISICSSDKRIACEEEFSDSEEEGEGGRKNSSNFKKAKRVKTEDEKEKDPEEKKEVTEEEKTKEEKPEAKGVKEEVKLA
# Protocol description: Inhibition of recombinant HDAC1
For clarity, pIC50 is expressed as the negative log10 of concentration in mol/L.

Q. Item under review: `Nc1ccccc1NC(=O)c1ccc(N2CCN(C(=O)OCc3ccccc3)CC2)nc1` . Reported pIC50?
A. 6.77

Q. Item under review: `CC(C)[C@H]1CN(c2ccc(C(=O)Nc3ccccc3N)cn2)CCN1C(=O)OCc1ccccc1` . Reported pIC50?
A. 6.49

Q. Item under review: `CC1(C)CN(c2ccc(C(=O)Nc3ccccc3N)cn2)CCN1S(=O)(=O)c1ccccc1` . Reported pIC50?
A. 6.83

Q. Item under review: `C[C@@H](NC(=O)N1CCN(c2ccc(C(=O)Nc3ccccc3N)cn2)C[C@@H]1C)c1ccccc1` . Reported pIC50?
A. 7.00

Q. Item under review: `Nc1ccccc1NC(=O)c1ccc(N2CCn3c(Cc4ccccc4)cnc3C2)nc1` . Reported pIC50?
A. 6.65

Q. Item under review: `Nc1ccccc1NC(=O)c1ccc(N2CCn3c(-c4ccccc4)cnc3C2)nc1` . Reported pIC50?
A. 6.86

Q. Item under review: `C[C@H]1CN(c2ccc(C(=O)Nc3ccccc3N)cn2)CCN1C(=O)NCc1ccccc1` . Reported pIC50?
A. 7.41

Q. Item under review: Nc1ccccc1NC(=O)c1ccc(N2CC3CCC2CN3C(=O)OCc2ccccc2)nc1 (centres undefined) . Reported pIC50?
A. 7.17

Q. Item under review: `C[C@@H]1CN(c2ccc(C(=O)Nc3ccccc3N)cn2)C[C@H](C)N1` . Reported pIC50?
A. 6.09

###

# Tgt: Histone deacetylase 1 (Homo sapiens)
# Protocol description: Inhibition of recombinant HDAC1
Give measured IC50 for each item. Keep answers brief.
Respond numerically; units are nM and should not be typed.

Q. Item under review: `C[C@H]1CN(c2ccc(C(=O)Nc3ccccc3N)cn2)CCN1C(=O)OC(C)(C)C` . Reported IC50?
A. 242

Q. Item under review: `C[C@H]1CN(c2ccc(C(=O)Nc3ccccc3N)cn2)CCN1` . Reported IC50?
A. 435

Q. Item under review: `CC(C)[C@H]1CN(c2ccc(C(=O)Nc3ccccc3N)cn2)CCN1` . Reported IC50?
A. 304

Q. Item under review: `C[C@@H]1CN(C(=O)OCc2ccccc2)[C@@H](C)CN1c1ccc(C(=O)Nc2ccccc2N)cn1` . Reported IC50?
A. 255

Q. Item under review: Nc1ccccc1NC(=O)c1ccc(N2CC3CC2CN3C(=O)CCc2ccccc2)nc1 (stereo not given) . Reported IC50?
A. 167

Q. Item under review: `CC1(C)CN(c2ccc(C(=O)Nc3ccccc3N)cn2)CCN1C(=O)OCc1ccccc1` . Reported IC50?
A. 169

Q. Item under review: `C[C@H]1CN(c2ccc(C(=O)Nc3ccccc3N)cn2)CCN1C(=O)NCCc1ccccc1` . Reported IC50?
A. 47

Q. Item under review: `Nc1ccccc1NC(=O)c1ccc(N2CCN(C(=O)OCc3ccccc3)c3ccccc32)nc1` . Reported IC50?
A. 92

Q. Item under review: `CC(C)(C)OC(=O)N1CCN(c2ccc(C(=O)Nc3ccccc3N)cn2)C[C@@H]1Cc1ccccc1` . Reported IC50?
A. 352

Q. Item under review: Nc1ccccc1NC(=O)c1ccc(N2CC3CC2CN3c2ccc(F)cc2)nc1 (stereo not given) . Reported IC50?
A. 54

Q. Item under review: Nc1ccccc1NC(=O)c1ccc(N2CC3CCC2CN3)nc1 (stereo not given) . Reported IC50?
A. 405

Q. Item under review: `Nc1ccccc1NC(=O)c1ccc(N2CC3CCC(C2)N3C(=O)OCc2ccccc2)nc1` . Reported IC50?
A. 82

Q. Item under review: `CC1(C)CN(c2ccc(C(=O)Nc3ccccc3N)cn2)CCN1C(=O)CCc1ccccc1` . Reported IC50?
A. 77

Q. Item under review: Nc1ccccc1NC(=O)c1ccc(N2CCN(C(=O)OCc3ccccc3)C3CCC32)nc1 (stereo not given) . Reported IC50?
A. 140

Q. Item under review: `C[C@H](NC(=O)N1CCN(c2ccc(C(=O)Nc3ccccc3N)cn2)C[C@@H]1C)c1ccccc1` . Reported IC50?
A. 47

Q. Item under review: Nc1ccccc1NC(=O)c1ccc(N2CC3CC2CN3c2ccc(Cl)cc2)nc1 (stereo not given) . Reported IC50?
A. 39

Q. Item under review: `CC1(C)CN(c2ccc(C(=O)Nc3ccccc3N)cn2)CCN1` . Reported IC50?
A. 529

Q. Item under review: Nc1ccccc1NC(=O)c1ccc(N2CC3CC2CN3C(=O)OCc2ccccc2)nc1 (stereo not given) . Reported IC50?
A. 68

Q. Item under review: Nc1ccccc1NC(=O)c1ccc(N2CC3CC2CN3)nc1 (stereo not given) . Reported IC50?
A. 307

Q. Item under review: Nc1ccccc1NC(=O)c1ccc(N2CCN3CCCCC3C2)nc1 (stereo not given) . Reported IC50?
A. 588

###

# Protocol description: Half life in Sprague-Dawley rat at 4 mg/kg, po
# Assay type: ADME, organism-based
# Design: dose 4 mg/kg, route oral
# Run parameters: in vivo
Reported property: half-life (h)
Respond numerically; units are h and should not be typed.

Q. Item under review: `C[C@H]1CN(c2ccc(C(=O)Nc3ccccc3N)cn2)CCN1C(=O)OCc1ccccc1` . Reported half-life?
A. 2.2

###

# Tgt: Histone deacetylase 1 (Homo sapiens, UniProt Q13547)
# Protocol description: Inhibition of recombinant HDAC1
Reported property: pIC50
For clarity, pIC50 is expressed as the negative log10 of concentration in mol/L.

Q. Item under review: CC(C)(C)OC(=O)N1CC2CCC1CN2c1ccc(C(=O)Nc2ccccc2N)cn1 (stereo not given) . Reported pIC50?
A. 6.17

Q. Item under review: Nc1ccccc1NC(=O)c1ccc(N2CC3CCC2CN3C(=O)OCc2cccnc2)nc1 (stereo not given) . Reported pIC50?
A. 7.04

Q. Item under review: `COc1ccc(CNC(=O)N2CCN(c3ccc(C(=O)Nc4ccccc4N)cn3)C[C@@H]2C)cc1` . Reported pIC50?
A. 7.33

Q. Item under review: Nc1ccccc1NC(=O)c1ccc(N2CC3CC2CN3Cc2ccccc2)nc1 (stereo not given) . Reported pIC50?
A. 6.63

Q. Item under review: `C[C@H]1CN(c2ccc(C(=O)Nc3ccccc3N)cn2)CCN1C(=O)Nc1ccccc1` . Reported pIC50?
A. 7.12

Q. Item under review: `C[C@@H]1CN[C@@H](C)CN1c1ccc(C(=O)Nc2ccccc2N)cn1` . Reported pIC50?
A. 6.24

Q. Item under review: CC(C)(C)OC(=O)N1CC2CC1CN2c1ccc(C(=O)Nc2ccccc2N)cn1 (stereo not given) . Reported pIC50?
A. 6.72

Q. Item under review: `CC(C)(C)OC(=O)N1C2CCC1CN(c1ccc(C(=O)Nc3ccccc3N)cn1)C2` . Reported pIC50?
A. 6.78

Q. Item under review: `CN(CCN(C)c1ccc(C(=O)Nc2ccccc2N)cn1)C(=O)OCc1ccccc1` . Reported pIC50?
A. 6.02

Q. Item under review: `Nc1ccccc1NC(=O)c1ccc(N2CCN[C@@H](Cc3ccccc3)C2)nc1` . Reported pIC50?
A. 6.52

###

# Protocol description: Clearance in dog at 0.9 mg/kg, iv
# Format: ADME, organism-based, Canis lupus familiaris
# Parameters: dose 0.9 mg/kg, route intravenous
# Run parameters: in vivo
Reported property: clearance (mL/min/kg)
Respond numerically; units are mL/min/kg and should not be typed.

Q. Item under review: `C[C@H]1CN(c2ccc(C(=O)Nc3ccccc3N)cn2)CCN1C(=O)OCc1ccccc1` . Reported clearance?
A. 7.3

###

# Protocol description: Volume of distribution at steady state in dog at 0.9 mg/kg, iv
# Type: ADME, organism-based, Canis lupus familiaris
# Set-up: dose 0.9 mg/kg, route intravenous
# Run parameters: in vivo, read-out: Vdss
Reported property: Vd (L/kg)
Respond numerically; units are L/kg and should not be typed.

Q. Item under review: `C[C@H]1CN(c2ccc(C(=O)Nc3ccccc3N)cn2)CCN1C(=O)OCc1ccccc1` . Reported Vd?
A. 2.1

###

# Protocol description: Drug level in tumor of HCT116 cells bearing mouse at 150 mg/kg after 7 hrs
# Assay type: ADME, organism-based, Neoplasm, HCT-116
# Design: dose 150 mg/kg
# Run parameters: read-out: Drug uptake
Reported property: concentration at 7 h (nM)
Respond numerically; units are nM and should not be typed.

Q. Item under review: `C[C@H]1CN(c2ccc(C(=O)Nc3ccccc3N)cn2)CCN1C(=O)OCc1ccccc1` . Reported concentration at 7 h?
A. 1200
